What GI50 was measured for each of the following?
test system: Malme-3M; assay: NCI tumour cell line growth inhibition, 48 h
The source made the active and inactive calls. Cut-off read from the data, not from the text of the source: active = GI50 up to about 1.1 µM and inactive = higher.

Use the examples below as a reference point.
Problem: // Input: CCCNC(=O)CCC(C)C1CCC2C3C(C[C@H](OC(C)=O)[C@]12C)[C@@]1(C)CCC2(C[C@H]1C[C@H]3OC(C)=O)OOC1(CC[C@]3(C)C4C[C@H](OC(C)=O)[C@]5(C)C(C(C)CCC(=O)NCCC)CCC5C4[C@H](OC(C)=O)C[C@@H]3C1)OO2 (some centres undefined) . Output its GI50 only.
Solution: 34.6 µM (inactive)

Problem: Identify measured GI50 corresponding to C[C@H](CC[C@@H](O)C(C)(C)O)[C@H]1CC[C@@]2(C)[C@@H]3CC=C4[C@@H](CC[C@H](O)C4(C)C)[C@]3(C)C(=O)C[C@]12C [BRYODULCOSIGENIN]
Solution: > 50 µM (inactive)

Problem: Given `Cn1c2c([N+](=O)[O-])cccc2c(=O)c2c(O)cc3c(c21)C=CC(C)(C)O3` , respond with its GI50.
Solution: 40.2 µM (inactive)

Note: attention shifts to another entry.
Problem: State its GI50: `CCOC(=O)C1=C(Nc2ccc(Br)cc2)OC/C1=N\NC(=O)c1ccccc1O`
Solution: 35.4 µM (inactive)
